The entries below are paired with their reported pIC50.
# system-under-test: Replicase polyprotein 1ab (Severe acute respiratory syndrome coronavirus 2)
# experimental-protocol: Inhibition of N-terminal MBP-tagged SARS CoV-2 Main protease by fluorescence based analysis
Schema: pIC50 number; meaning minus log10 of the concentration expressed in molar units.

CC(=O)N[C@H](C(=O)N[C@H](C(=O)N[C@@H](CC(C)C)C(=O)N[C@@H](CCC(=O)N(C)C)C(=O)Cn1[nH]c(=O)c2c([N+](=O)[O-])cccc2c1=O)[C@@H](C)OCc1ccccc1)C(C)C; 6.22

Now let's try a different one.
What measured pIC50 goes with `Cc1cc(S(=O)(=O)c2c([N+](=O)[O-])cc(C(F)(F)F)cc2[N+](=O)[O-])c(Cl)cc1Cl` ?
6.52

// provenance: ChEMBL document CHEMBL5244279
